system: SB.msgc-1; assay: viability at highest tested concentration (MAXR) relative to DMSO; higher = less cytotoxic; conditions: SB.msgc-1 (sporadic gastric cancer)
Provide the reported viability of each item.

Under SB.msgc-1, report viability for CC/1=C/C(=O)N(O)/C(=C1)C2CCCCC2 [ciclopirox] (top concentration 46.0829 µM)
48.1%

Under SB.msgc-1, report viability for CN(C)c1ccc(-c2nc3c(N4CCN(CC(=O)Nc5nccs5)CC4)c(Cl)cnc3[nH]2)cc1 (top concentration 46.0829 µM)
73%

Under SB.msgc-1, report viability for OC[C@H]1O[C@@H](Oc2cc(O)cc(/C=C/c3ccc(O)cc3)c2)[C@H](O)[C@@H](O)[C@@H]1O [Polydatin] (top concentration 46.0829 µM)
55.8%

Under SB.msgc-1, report viability for Cc1nn(Cc2ccccc2Cl)c(C)c1CN(C)CC(O)COc1ccc(Cl)cc1 (centres undefined) (top concentration 46.0829 µM)
58.7%

====

Provide the reported AC50 for growth inhibition (log10 M) of each item.
test system: SB.msgc-1; test: AC50 for growth inhibition (viability) (log10 M); higher = less potent; details: SB.msgc-1 (sporadic gastric cancer)
Structures can show the parent of a compound that is named as a salt.

Provide measured AC50 for growth inhibition (log10 M) value, entry: Nc1nccc(-c2ccc3noc(-c4ccc(Cl)cc4)c3c2)n1
-5.03

Provide measured AC50 for growth inhibition (log10 M) value, entry: N[S+](=O)([O-])c1cccc2c1C(=O)c1cccc(O)c1C2=O
-6.63

Provide measured AC50 for growth inhibition (log10 M) value, entry: COc1cc([C@@H]2c3cc4c(cc3[C@H](O)[C@H]3COC(=O)[C@@H]23)OCO4)cc(OC)c1OC
-6.73

Provide measured AC50 for growth inhibition (log10 M) value, entry: CCOC(=O)N1CCN(/[N+]([O-])=N/Oc2ccc([N+](=O)[O-])cc2C#N)CC1
-5.13

Provide measured AC50 for growth inhibition (log10 M) value, entry: CN(C)C1=CC=C(C=C1)C(C2=CC=C(C=C2)N(C)C)=C/3\C=C/C(/C=C3)=[N+](C)C [Methylrosaniline chloride]
-5.78

Provide measured AC50 for growth inhibition (log10 M) value, entry: CN(C)CCCN1c2ccccc2CCc2ccc(Cl)cc21 [Clomipramine hydrochloride]
-5.93

Provide measured AC50 for growth inhibition (log10 M) value, entry: Cc1ccc([S+](=O)([O-])N[C@@H](Cc2ccccc2)C(=O)CCl)cc1
-4.73

Provide measured AC50 for growth inhibition (log10 M) value, entry: C[S+](=O)([O-])CCNCc1ccc(-c2ccc3ncnc(Nc4ccc(OCc5cccc(F)c5)c(Cl)c4)c3c2)o1
-7.93

Provide measured AC50 for growth inhibition (log10 M) value, entry: Cc1cccc(Nc2nc(-c3ccncc3)cs2)c1
-4.68

Provide measured AC50 for growth inhibition (log10 M) value, entry: CN1C(=O)/C(=C(NC2=CC=C(I)C=C2F)\C3=C1\N=C/N(C[C@@H](O)CO)C3=O)F
-6.48

Provide measured AC50 for growth inhibition (log10 M) value, entry: CC1(C)CC(=O)c2c(C(F)(F)F)nn(-c3ccc(C(N)=O)c(NC4CCC(OC(=O)CN)CC4)c3)c2C1 (stereo not drawn)
-7.13

Provide measured AC50 for growth inhibition (log10 M) value, entry: C#Cc1cccc(Nc2ncnc3cc(OC)c(OCCCCCCC(=O)NO)cc23)c1
-7.53

Provide measured AC50 for growth inhibition (log10 M) value, entry: [O-]C(=O)C1=C(C(=C(Cl)C(=C1Cl)Cl)Cl)C/2=C/3\C=C(I)/C(=O)/C(=C3OC4=C2C=C(I)C(=C4I)[O-])I [Rose Bengal disodium]
-4.93

Provide measured AC50 for growth inhibition (log10 M) value, entry: CC(C)(O)c1cc2nc(-c3cnc(N)nc3)nc(N3CCOCC3)c2s1
-6.88

Provide measured AC50 for growth inhibition (log10 M) value, entry: CNCC(O)C(O)C(O)C(O)CO.O=C(O)c1ccc(-c2cc3cccnc3c(-c3ccc4nonc4c3)n2)cc1
-4.63

Provide measured AC50 for growth inhibition (log10 M) value, entry: CN1\C(=C(O)/C2=C(C=C(Cl)S2)[S+]1([O-])=O)C(=O)NC3=NC=CC=C3
-5.43

Provide measured AC50 for growth inhibition (log10 M) value, entry: C/C=C/C[C@@H](C)C(=O)[C@H]1C(=O)N[C@@H](C(C)C)C(=O)N(C)CC(=O)N(C)[C@@H](CC(C)C)C(=O)N[C@@H](C(C)C)C(=O)N(C)[C@@H](CC(C)C)C(=O)N[C@@H](C)C(=O)N[C@H](C)C(=O)N(C)[C@@H](CC(C)C)C(=O)N(C)[C@@H](CC(C)C)C(=O)N(C)[C@@H](C(C)C)C(=O)N1C
-5.08

Provide measured AC50 for growth inhibition (log10 M) value, entry: CC(C(=O)O)c1cccc(C(=O)c2ccccc2)c1 (stereo not drawn)
-5.03

Provide measured AC50 for growth inhibition (log10 M) value, entry: COc1cccc2cc(-c3nc(C4CCC(C(=O)O)CC4)n4ncnc(N)c34)[nH]c12 (stereo not drawn)
-5.33

Provide measured AC50 for growth inhibition (log10 M) value, entry: CC1(C)CCC(=C(CN2CCN(CC2)C3=CC=C(C=C3)C(=O)N[S+]([O-])(=O)C4=CC(=C(N[C@H](CCN5CCOCC5)CSC6=CC=CC=C6)C=C4)[S+]([O-])(=O)C(F)(F)F)\C1)/C7=CC=C(Cl)C=C7
-5.13

Provide measured AC50 for growth inhibition (log10 M) value, entry: CC(C)(C)OC(=O)CN(Cc1ccc(Cl)cc1)Cc1ccc([N+](=O)[O-])s1
-4.68

Provide measured AC50 for growth inhibition (log10 M) value, entry: CCc1c(O)cc(O)c(C(=O)c2ccc(OCCN3CCOCC3)c(OC)c2)c1CC(=O)N(CCOC)CCOC
-6.58

Provide measured AC50 for growth inhibition (log10 M) value, entry: CCCCC(F)(F)[C@@]1(O)CC[C@H]2[C@@H](CC(=O)[C@@H]2CCCCCCC(=O)O)O1
-4.78

Provide measured AC50 for growth inhibition (log10 M) value, entry: Cc1cc(Nc2cc(NC(=O)c3c(Cl)cccc3Cl)ccn2)nc(N)n1
-6.38

Provide measured AC50 for growth inhibition (log10 M) value, entry: O=C(Nc1ccc([N+](=O)[O-])cc1Cl)c1cc(Cl)ccc1O [Niclosamide]
-5.38

Provide measured AC50 for growth inhibition (log10 M) value, entry: CN(Cc1cnc2nc(N)nc(N)c2n1)c1ccc(C(=O)N[C@@H](CCC(=O)O)C(=O)O)cc1 [Methotrexate]
-7.48

Provide measured AC50 for growth inhibition (log10 M) value, entry: COC1=CC=C(C=C1)C2CC(=N/N2C3=CC=C(C=C3)[S+](N)([O-])=O)\C4=CC=CC=C4 (stereo not drawn)
-4.73

Provide measured AC50 for growth inhibition (log10 M) value, entry: CC(C)(C)C1=NC2=C([NH]1)C3=CC=C(F)C=C3C4=C2\C=C/NC4=O
-5.33

====

system: SB.msgc-1; assay: area under the dose-response curve of % viability (trapezoidal, 11 doses) (% viability x log10 concentration); higher = less cytotoxic; conditions: SB.msgc-1 (sporadic gastric cancer)
Provide the reported area under the dose-response curve of each item.
Form: value (number only, do not type unit).

Provide measured area under the dose-response curve value, entry: CC1CNc2c(cccc2[S+](=O)([O-])N[C@@H](CCCNC(=N)N)C(=O)N2CC[C@@H](C)C[C@@H]2C(=O)O)C1 (stereo partly specified) [Argatroban] (top concentration 46.0829 µM)
525

Provide measured area under the dose-response curve value, entry: CC(C)[N+]1(C)C2CCC1CC(OC(=O)C(CO)c1ccccc1)C2.O.[Br-] (stereo unspecified) [Ipratropium bromide] (top concentration 46.0829 µM)
504

Provide measured area under the dose-response curve value, entry: COc1cccc2c1C(=O)c1c(O)c3c(c(O)c1C2=O)C[C@@](O)(C(=O)CO)C[C@@H]3O[C@H]1C[C@H](N)[C@H](O[C@H]2CCCCO2)[C@H](C)O1 [Pirarubicin] (top concentration 46.0829 µM)
437

Provide measured area under the dose-response curve value, entry: CCC(=O)OCC(=O)[C@@]1(OC(=O)CC)[C@@H](C)C[C@H]2[C@@H]3CCC4=CC(=O)C=C[C@]4(C)[C@@]3(F)[C@@H](O)C[C@@]21C [Betamethasone dipropionate] (top concentration 46.0829 µM)
537

Provide measured area under the dose-response curve value, entry: CCCNC(=O)Nc1ccc(Oc2ncnc3cc(OC)c(OC)cc23)cc1Cl [KRN-633] (top concentration 46.0829 µM)
441

Provide measured area under the dose-response curve value, entry: CCc1cc(/C(C)=N/OCc2ccc(C3CCCCC3)c(C(F)(F)F)c2)ccc1CN1CC(C(=O)O)C1 [BAF-312] (top concentration 46.0829 µM)
465

Provide measured area under the dose-response curve value, entry: C[C@H]1C[C@H]2[C@@H]3CC[C@](O)(C(=O)CO)[C@@]3(C)C[C@H](O)[C@@H]2[C@@]\4(C)/C=C\C(=O)\C=C14 [Methylprednisolone] (top concentration 46.0829 µM)
495

Provide measured area under the dose-response curve value, entry: CC[N+](CC)(CC)CCOc1cccc(OCC[N+](CC)(CC)CC)c1OCC[N+](CC)(CC)CC [Gallamine triethiodide] (top concentration 46.0829 µM)
543

Provide measured area under the dose-response curve value, entry: CC1(N2CCC(n3c([C@@H]4CCCNC4)nc4ccccc43)CC2)CCCCCCC1 [MCOPPB] (top concentration 46.0829 µM)
530

Provide measured area under the dose-response curve value, entry: N#CCNC(=O)c1ccc(-c2ccnc(Nc3ccc(N4CCOCC4)cc3)n2)cc1 [CYT387] (top concentration 46.0829 µM)
474

Provide measured area under the dose-response curve value, entry: COc1ccccc1OCC(O)COC(N)=O (stereo unspecified) [Methocarbamol] (top concentration 46.0829 µM)
498
